experiment description: self-splicing fitness, log relative to wild type (ln ratio); higher = more splicing; Tetrahymena group I intron in knt gene, E. coli kanamycin selection, DiMSum; sequences stand for … in CUCUCU…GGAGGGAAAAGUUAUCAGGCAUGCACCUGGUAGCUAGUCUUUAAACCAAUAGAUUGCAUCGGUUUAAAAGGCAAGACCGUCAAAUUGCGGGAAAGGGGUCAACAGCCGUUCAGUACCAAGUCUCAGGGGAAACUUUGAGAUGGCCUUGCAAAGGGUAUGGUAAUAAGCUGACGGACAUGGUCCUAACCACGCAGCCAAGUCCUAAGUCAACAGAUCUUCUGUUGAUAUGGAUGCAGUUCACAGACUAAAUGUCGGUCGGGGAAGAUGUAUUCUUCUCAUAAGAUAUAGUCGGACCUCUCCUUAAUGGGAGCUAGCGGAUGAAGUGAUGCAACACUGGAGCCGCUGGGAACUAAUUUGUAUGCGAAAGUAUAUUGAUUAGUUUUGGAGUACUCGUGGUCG;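 also: selection with 25 µg/mL kanamycin versus none on LB agar overnight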
condition notes: 37 °C
endpoint name: self-splicing fitness (ln)

[[record]]
sequence_record = "GAGGAGCAAUAUUACGACAU"
endpoint_name = "self-splicing fitness (ln)"
numeric_readout = -1.21

[[record]]
sequence_record = "CUGGAGCAAUAUUACGACAU"
endpoint_name = "self-splicing fitness (ln)"
numeric_readout = -1.3

[[record]]
sequence_record = "CCUGAGCAAUAUUACGAAGG"
endpoint_name = "self-splicing fitness (ln)"
numeric_readout = -2.36

[[record]]
sequence_record = "GGUCAGCAAUAUUACGAUCC"
endpoint_name = "self-splicing fitness (ln)"
numeric_readout = -0.912

[[record]]
sequence_record = "GUUUAGCAAUAUUACGCUGG"
endpoint_name = "self-splicing fitness (ln)"
numeric_readout = -0.944

[[record]]
sequence_record = "UGACAGCAAUAUUACGGGCC"
endpoint_name = "self-splicing fitness (ln)"
numeric_readout = -2.23

[[record]]
sequence_record = "CUAAAGCAAUAUUACGAAGG"
endpoint_name = "self-splicing fitness (ln)"
numeric_readout = -0.0689

[[record]]
sequence_record = "UCAAAGCAAUAUUACGGAGC"
endpoint_name = "self-splicing fitness (ln)"
numeric_readout = -3.53

[[record]]
sequence_record = "GGAGAGCAAUAUUACGGCUA"
endpoint_name = "self-splicing fitness (ln)"
numeric_readout = -1.25

[[record]]
sequence_record = "GGAGAGCAAUAUUACGGAUC"
endpoint_name = "self-splicing fitness (ln)"
numeric_readout = -0.404

[[record]]
sequence_record = "GCUUAGCAAUAUUACGUGCA"
endpoint_name = "self-splicing fitness (ln)"
numeric_readout = -0.319

[[record]]
sequence_record = "AUUGAGCAAUAUUACGCAUU"
endpoint_name = "self-splicing fitness (ln)"
numeric_readout = -1.49

[[record]]
sequence_record = "UGGCAGCAAUAUUACGUCUC"
endpoint_name = "self-splicing fitness (ln)"
numeric_readout = -0.21

[[record]]
sequence_record = "GCUGAGCAAUAUUACGUAUU"
endpoint_name = "self-splicing fitness (ln)"
numeric_readout = -2.3

[[record]]
sequence_record = "UGCCAGCAAUAUUACGCUUG"
endpoint_name = "self-splicing fitness (ln)"
numeric_readout = -2.33

[[record]]
sequence_record = "AUAGAGCAAUAUUACGAAUG"
endpoint_name = "self-splicing fitness (ln)"
numeric_readout = -1.96

